Quick list: Kd per entry.
molecular target: Vasopressin V1 receptor (Rattus norvegicus, UniProt P48974+P30560); test: Compound was evaluated for its dissociation constant (Kd) to rat liver Vasopressin V1 receptor
Numbered stars: 1 amine (or outer) side, 2 acyl side, 3 side chain; on linkers, the order of the positions; unused ones are H or OH. Bridge positions count the residues as written; N and C are the ends. Square brackets hold non-standard residues; d marks the D form. Peptide text beside a SMILES is read from it. X1 = O=C([C@@]1(N[*:1])CCc2ccccc2C1)[*:2]; Atc(2S) = N[C@@]1(C(=O)O)CCc2ccccc2C1; Mpa = O=C(O)CCS; Sar = CNCC(=O)O
Please respond with the number in µM and leave the unit unwritten.

Molecule	Experimental result
CC[C@H](C)[C@@H]1NC(=O)[C@@]2(CCc3ccccc3C2)NC(=O)CCSSC[C@@H](C(=O)N(C)CC(=O)N[C@@H](CCCN=C(N)N)C(=O)NCC(N)=O)NC(=O)[C@H](CC(N)=O)NC(=O)[C@H](CCC(N)=O)NC1=O ([Mpa][Atc(2S)]IQNC[Sar]RG-NH2; disulfide 1-6)	17.6

query: For the molecule CC[C@H](C)[C@@H]1NC(=O)[C@]2(CCc3ccccc3C2)NC(=O)CCSSC[C@@H](C(=O)N(C)CC(=O)N[C@@H](CCCN=C(N)N)C(=O)NCC(N)=O)NC(=O)[C@H](CC(N)=O)NC(=O)[C@H](CCC(N)=O)NC1=O ([Mpa][X1]IQNC[Sar]RG-NH2; disulfide 1-6) , give its reported Kd.
result: 2.64
